log10(IC50) for assorted compounds
assay system: Acetylcholinesterase (Homo sapiens, UniProt P22303)
Sequence (P22303 whole entry): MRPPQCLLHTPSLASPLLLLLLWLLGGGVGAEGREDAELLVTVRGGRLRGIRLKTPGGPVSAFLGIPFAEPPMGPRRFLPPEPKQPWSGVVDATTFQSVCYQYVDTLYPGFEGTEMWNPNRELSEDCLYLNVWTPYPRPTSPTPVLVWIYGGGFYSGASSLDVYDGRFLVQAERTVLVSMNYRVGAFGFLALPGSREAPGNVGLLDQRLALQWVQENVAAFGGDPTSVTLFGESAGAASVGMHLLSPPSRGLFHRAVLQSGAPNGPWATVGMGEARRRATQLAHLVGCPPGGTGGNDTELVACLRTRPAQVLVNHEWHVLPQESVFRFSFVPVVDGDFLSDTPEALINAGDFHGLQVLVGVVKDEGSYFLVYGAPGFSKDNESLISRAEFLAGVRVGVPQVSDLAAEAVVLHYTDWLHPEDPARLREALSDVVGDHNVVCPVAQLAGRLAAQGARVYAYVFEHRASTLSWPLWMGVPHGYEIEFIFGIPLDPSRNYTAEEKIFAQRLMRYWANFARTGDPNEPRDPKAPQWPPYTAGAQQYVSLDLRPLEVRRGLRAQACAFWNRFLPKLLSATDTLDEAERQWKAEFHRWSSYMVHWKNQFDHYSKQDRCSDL
reported property: log10(IC50) (log10 of the value in nM)

1) CCN(CC)CCCOc1ccc2nc3n(c(=O)c2c1)CCCC3 ... 3.18
2) c1cc2c(cc1OCCCN1CCCCC1)CN1CCCC1=N2 ... 1.53
3) O=c1c2cc(OCCCN3CCCCC3)ccc2nc2n1CCCCC2 ... 2.91
4) O=c1c2cc(OCCCn3ccnc3)ccc2nc2n1CCCc1ccccc1-2 ... 4.75
5) CCN(CC)CCCOc1ccc2nc3n(c(=O)c2c1)CCc1ccccc1-3 ... 2.83
6) CCN(CC)CCCOc1ccc2nc3n(c(=O)c2c1)Cc1ccccc1-3 ... 2.30
7) CCN(CC)CCCOc1ccc2nc3n(c(=O)c2c1)CCCCC3 ... 4.08
8) O=c1c2cc(OCCCN3CCCCC3)ccc2nc2n1CCC2 ... 3.04
9) O=c1c2cc(OCCCN3CCCCC3)ccc2nc2n1CCCc1ccccc1-2 ... 2.73
10) CCN(CC)CCCOc1ccc2nc3n(c(=O)c2c1)CCC3 ... 3.08
11) CCN(CC)CCCOc1ccc2nc3n(c(=O)c2c1)CCCc1ccccc1-3 ... 3.62
12) O=c1c2cc(OCCCN3CCCCC3)ccc2nc2n1CCCC2 ... 2.35

###

# reported pIC50; entries follow
assay system: Acetylcholinesterase (Electrophorus electricus, UniProt O42275)
Sequence (O42275 whole entry): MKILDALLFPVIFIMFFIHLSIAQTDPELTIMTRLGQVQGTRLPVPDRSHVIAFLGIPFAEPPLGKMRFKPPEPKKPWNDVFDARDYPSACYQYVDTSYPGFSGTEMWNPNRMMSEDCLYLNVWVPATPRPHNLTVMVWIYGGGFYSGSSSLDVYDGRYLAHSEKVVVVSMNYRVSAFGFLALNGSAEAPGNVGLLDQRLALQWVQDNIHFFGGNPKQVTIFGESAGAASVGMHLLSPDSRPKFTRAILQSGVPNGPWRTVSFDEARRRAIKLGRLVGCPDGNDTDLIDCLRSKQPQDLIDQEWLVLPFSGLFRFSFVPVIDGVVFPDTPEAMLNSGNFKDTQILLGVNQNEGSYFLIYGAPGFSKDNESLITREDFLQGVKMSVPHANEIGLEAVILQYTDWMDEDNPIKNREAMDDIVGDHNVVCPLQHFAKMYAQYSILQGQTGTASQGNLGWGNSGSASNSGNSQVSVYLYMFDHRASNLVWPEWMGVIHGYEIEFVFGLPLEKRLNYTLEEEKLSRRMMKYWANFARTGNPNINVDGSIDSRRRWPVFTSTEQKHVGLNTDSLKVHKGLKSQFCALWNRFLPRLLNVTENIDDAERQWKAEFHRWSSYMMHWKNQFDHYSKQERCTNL
pIC50: −log10 of the molar value.
reported property: pIC50

1. O=c1c2cc(OCCCN3CCCC3)ccc2nc2n1CCCc1ccccc1-2 ... 6.28
2. O=c1c2cc(OCCCN3CCCCC3)ccc2nc2n1CCCCC2 ... 7.37
3. O=c1c2cc(OCCCN3CCc4ccccc4C3)ccc2nc2n1CCCc1ccccc1-2 ... 5.92
4. O=c1c2cc(OCCCN3CCCCC3)ccc2nc2n1CCCc1ccccc1-2 ... 7.24
5. O=c1c2cc(OCCCN3CCCC3)ccc2nc2n1CCc1ccccc1-2 ... 7.04
6. O=c1c2cc(OCCCN3CCc4ccccc4C3)ccc2nc2n1Cc1ccccc1-2 ... 6.64
7. O=c1c2cc(OCCCN3CCCC3)ccc2nc2n1CCC2 ... 7.30
8. CCN(CC)CCCOc1ccc2nc3n(c(=O)c2c1)CCC3 ... 7.00
9. O=c1c2cc(OCCCN3CCCCC3)ccc2nc2n1CCC2 ... 7.16

###

assay system: Histamine H3 receptor (Homo sapiens, UniProt Q9Y5N1)
Sequence (Q9Y5N1 whole entry): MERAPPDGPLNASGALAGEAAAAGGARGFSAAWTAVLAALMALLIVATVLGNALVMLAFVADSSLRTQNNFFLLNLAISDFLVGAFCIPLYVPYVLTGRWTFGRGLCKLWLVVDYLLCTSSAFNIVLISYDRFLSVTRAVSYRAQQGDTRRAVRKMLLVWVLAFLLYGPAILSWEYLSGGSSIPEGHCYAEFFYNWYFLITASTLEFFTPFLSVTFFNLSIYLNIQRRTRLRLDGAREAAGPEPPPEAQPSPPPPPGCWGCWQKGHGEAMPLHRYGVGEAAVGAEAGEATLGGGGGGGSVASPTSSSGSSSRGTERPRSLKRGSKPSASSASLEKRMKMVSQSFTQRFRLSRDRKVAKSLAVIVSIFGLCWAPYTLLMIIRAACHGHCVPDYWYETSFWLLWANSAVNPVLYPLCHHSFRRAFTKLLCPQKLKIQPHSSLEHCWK
pKi: −log10 of the molar value.
reported property: pKi

1) c1cc2c(cc1OCCCN1CCCCC1)CN1CCCC1=N2 ... 7.12

###

This section lists IC50 readings for Acetylcholinesterase (Electrophorus electricus).
reported property: IC50 (nM)

1. CCN(CC)CCCOc1ccc2nc3n(c(=O)c2c1)Cc1ccccc1-3 ... 11
2. CCN(CC)CCCOc1ccc2nc3n(c(=O)c2c1)CCCCC3 ... 50.6
3. O=c1c2cc(OCCCn3ccnc3)ccc2nc2n1CCCCC2 ... 3950
4. O=c1c2cc(OCCCCCCCCCN3CCCCC3)ccc2nc2n1CCC2 ... 390
5. O=c1c2cc(OCCCN3CCc4ccccc4C3)ccc2nc2n1CCCCC2 ... 653
6. O=c1c2cc(OCCCn3ccnc3)ccc2nc2n1CCC2 ... 1900
7. O=c1c2cc(OCCCN3CCCCCC3)ccc2nc2n1CCc1ccccc1-2 ... 13
8. CCN(CC)CCCOc1ccc2nc3n(c(=O)c2c1)CCc1ccccc1-3 ... 47.5
9. O=c1c2cc(OCCCN3CCCCC3)ccc2nc2n1CCCC2 ... 33.3
10. O=c1c2cc(OCCCn3ccnc3)ccc2nc2n1CCCC2 ... 4240
11. O=c1c2cc(OCCCN3CCCC3)ccc2nc2n1CCCC2 ... 210
12. O=c1c2cc(OCCCN3CCCCC3)ccc2nc2n1CCc1ccccc1-2 ... 5.5
13. O=c1c2cc(OCCCN3CCCC3)ccc2nc2n1Cc1ccccc1-2 ... 16.2
14. O=c1c2cc(OCCCN3CCCC3)ccc2nc2n1CCCCC2 ... 295
15. O=c1c2cc(OCCCN3CCCCCC3)ccc2nc2n1CCCc1ccccc1-2 ... 53.4
16. CCN(CC)CCCOc1ccc2nc3n(c(=O)c2c1)CCCc1ccccc1-3 ... 72.1
17. O=c1c2cc(OCCCn3ccnc3)ccc2nc2n1Cc1ccccc1-2 ... 454
18. O=c1c2cc(OCCCN3CCc4ccccc4C3)ccc2nc2n1CCc1ccccc1-2 ... 625
19. O=c1c2cc(OCCCN3CCCCCC3)ccc2nc2n1Cc1ccccc1-2 ... 5
20. O=c1c2cc(OCCCn3ccnc3)ccc2nc2n1CCc1ccccc1-2 ... 2440
21. O=c1c2cc(OCCCN3CCCCCC3)ccc2nc2n1CCC2 ... 50.2
22. O=c1c2cc(OCCCN3CCCCCC3)ccc2nc2n1CCCC2 ... 58.5
23. O=c1c2cc(OCCCN3CCc4ccccc4C3)ccc2nc2n1CCC2 ... 868

###

Target or system Cholinesterase (Equus caballus): recorded pIC50 listed per item.
pIC50: −log10 of the molar value.
reported property: pIC50

1. O=c1c2cc(OCCCN3CCCC3)ccc2nc2n1Cc1ccccc1-2 ... 5.62
2. O=c1c2cc(OCCCN3CCc4ccccc4C3)ccc2nc2n1CCc1ccccc1-2 ... 5.74
3. O=c1c2cc(OCCCN3CCc4ccccc4C3)ccc2nc2n1CCCc1ccccc1-2 ... 5.74
4. CCN(CC)CCCOc1ccc2nc3n(c(=O)c2c1)Cc1ccccc1-3 ... 5.73
5. O=c1c2cc(OCCCN3CCc4ccccc4C3)ccc2nc2n1CCCC2 ... 5.26
6. O=c1c2cc(OCCCn3ccnc3)ccc2nc2n1CCc1ccccc1-2 ... 5.06
7. CCN(CC)CCCOc1ccc2nc3n(c(=O)c2c1)CCCCC3 ... 4.97
8. O=c1c2cc(OCCCN3CCc4ccccc4C3)ccc2nc2n1CCC2 ... 6.11
9. O=c1c2cc(OCCCn3ccnc3)ccc2nc2n1CCCCC2 ... 4.22

###

assay system: Acetylcholinesterase (Electrophorus electricus, UniProt O42275)
// NB: equality with 70 nM counts as label 0; only IC50 strictly below is label 1

1) O=c1c2cc(OCCCN3CCCCCC3)ccc2nc2n1CCCCC2 ... label 1
2) O=c1c2cc(OCCCN3CCCCC3)ccc2nc2n1Cc1ccccc1-2 ... label 1
3) O=c1c2cc(OCCCn3ccnc3)ccc2nc2n1CCCc1ccccc1-2 ... label 0
4) CCN(CC)CCCOc1ccc2nc3n(c(=O)c2c1)CCCC3 ... label 1
5) c1cc2c(cc1OCCCN1CCCCC1)CN1CCCC1=N2 ... label 1
6) O=c1c2cc(OCCCN3CCc4ccccc4C3)ccc2nc2n1CCCC2 ... label 0

###

assay system: Cholinesterase (Equus caballus, UniProt P81908)
Sequence (P81908 whole entry): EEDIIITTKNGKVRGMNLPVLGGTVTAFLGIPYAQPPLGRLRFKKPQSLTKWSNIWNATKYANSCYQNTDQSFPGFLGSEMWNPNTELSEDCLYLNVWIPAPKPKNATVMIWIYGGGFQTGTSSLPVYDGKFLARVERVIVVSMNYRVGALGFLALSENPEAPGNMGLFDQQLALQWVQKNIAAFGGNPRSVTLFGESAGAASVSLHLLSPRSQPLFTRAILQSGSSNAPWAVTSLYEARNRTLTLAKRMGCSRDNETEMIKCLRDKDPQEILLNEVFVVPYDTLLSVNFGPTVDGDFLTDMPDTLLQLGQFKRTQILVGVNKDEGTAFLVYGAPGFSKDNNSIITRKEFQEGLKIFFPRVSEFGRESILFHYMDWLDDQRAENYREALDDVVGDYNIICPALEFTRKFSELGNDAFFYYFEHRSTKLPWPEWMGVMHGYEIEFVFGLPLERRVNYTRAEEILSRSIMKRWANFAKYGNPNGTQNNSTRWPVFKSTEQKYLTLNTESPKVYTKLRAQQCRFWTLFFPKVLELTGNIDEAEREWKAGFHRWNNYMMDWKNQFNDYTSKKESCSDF
pIC50: −log10 of the molar value.
reported property: pIC50

1. O=c1c2cc(OCCCN3CCc4ccccc4C3)ccc2nc2n1CCCCC2 ... 5.52
2. O=c1c2cc(OCCCN3CCCCCC3)ccc2nc2n1Cc1ccccc1-2 ... 5.73
3. CCN(CC)CCCOc1ccc2nc3n(c(=O)c2c1)CCc1ccccc1-3 ... 5.67
4. O=c1c2cc(OCCCN3CCCCC3)ccc2nc2n1CCC2 ... 3.91
5. O=c1c2cc(OCCCn3ccnc3)ccc2nc2n1Cc1ccccc1-2 ... 5.04
6. O=c1c2cc(OCCCN3CCCCCC3)ccc2nc2n1CCc1ccccc1-2 ... 6.23
7. O=c1c2cc(OCCCN3CCCCC3)ccc2nc2n1CCCC2 ... 5.18
8. O=c1c2cc(OCCCN3CCCC3)ccc2nc2n1CCCCC2 ... 4.91
9. O=c1c2cc(OCCCN3CCCCCC3)ccc2nc2n1CCCc1ccccc1-2 ... 6.06
10. O=c1c2cc(OCCCCCCCCCN3CCCCC3)ccc2nc2n1CCC2 ... 5.07
11. O=c1c2cc(OCCCN3CCCCCC3)ccc2nc2n1CCC2 ... 5.28
12. CCN(CC)CCCOc1ccc2nc3n(c(=O)c2c1)CCCC3 ... 5.04
13. O=c1c2cc(OCCCN3CCCCC3)ccc2nc2n1CCCc1ccccc1-2 ... 5.57
14. O=c1c2cc(OCCCN3CCCCC3)ccc2nc2n1CCCCC2 ... 4.90
15. O=c1c2cc(OCCCN3CCCC3)ccc2nc2n1CCC2 ... 4.98
16. O=c1c2cc(OCCCN3CCCC3)ccc2nc2n1CCCC2 ... 4.79
17. O=c1c2cc(OCCCN3CCCC3)ccc2nc2n1CCCc1ccccc1-2 ... 5.44
18. O=c1c2cc(OCCCN3CCc4ccccc4C3)ccc2nc2n1Cc1ccccc1-2 ... 5.76
19. O=c1c2cc(OCCCN3CCCCC3)ccc2nc2n1CCc1ccccc1-2 ... 6.02
20. CCN(CC)CCCOc1ccc2nc3n(c(=O)c2c1)CCC3 ... 6.08
21. O=c1c2cc(OCCCn3ccnc3)ccc2nc2n1CCCc1ccccc1-2 ... 4.28
22. CCN(CC)CCCOc1ccc2nc3n(c(=O)c2c1)CCCc1ccccc1-3 ... 5.29
23. O=c1c2cc(OCCCn3ccnc3)ccc2nc2n1CCC2 ... 4.83
24. O=c1c2cc(OCCCN3CCCCCC3)ccc2nc2n1CCCCC2 ... 5.74
